measurement.target: Cannabinoid receptor 2 (Mus musculus, UniProt P47936)
Sequence (P47936 whole entry): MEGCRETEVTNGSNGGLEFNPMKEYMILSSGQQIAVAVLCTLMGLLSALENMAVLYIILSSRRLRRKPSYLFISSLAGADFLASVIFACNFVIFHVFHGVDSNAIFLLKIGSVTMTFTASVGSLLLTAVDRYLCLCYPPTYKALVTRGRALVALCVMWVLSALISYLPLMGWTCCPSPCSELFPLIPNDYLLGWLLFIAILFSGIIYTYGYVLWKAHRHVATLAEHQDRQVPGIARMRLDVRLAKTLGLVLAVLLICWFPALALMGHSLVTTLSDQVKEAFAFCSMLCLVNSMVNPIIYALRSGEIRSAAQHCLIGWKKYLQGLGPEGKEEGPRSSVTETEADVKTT
test.protocol: Displacement of [3H]CP-55940 from mouse spleen CB2 receptor
Type: tissue-based
Assign labels as follows, please: t for Ki below 0.1 µM; f for Ki equal to or exceeding 0.1 µM.

The following molecules have reported results that may help.
C=C(C)[C@@H]1CCC(C)=C[C@H]1c1c(O)cc(-c2ccc(C)cc2)cc1O = f
CC1=CC[C@@H]2[C@@H](C1)c1c(O)cc(C3(C#N)CCCC3)cc1OC2(C)C = t
CC1=CC[C@@H]2[C@@H](C1)c1c(O)cc(C3(C#N)CCCCC3)cc1OC2(C)C = t

Inquiry: Check if Ki falls below 0.1 µM for CC1=CC[C@@H]2[C@@H](C1)c1c(O)cc(-c3ccc(C)cc3)cc1OC2(C)C .
Reply text: t

Inquiry: Here is the next molecule: C=C(C)[C@@H]1CCC(C)=C[C@H]1c1c(O)cc(C2(C#N)CCCCC2)cc1O
Reply text: f

Inquiry: Here is the next molecule: CCCc1ccc(-c2cc(O)c3c(c2)OC(C)(C)[C@@H]2CC=C(C)C[C@@H]32)cc1
Reply text: f

Inquiry: Here is the next molecule: CCc1ccc(-c2cc(O)c3c(c2)OC(C)(C)[C@@H]2CC=C(C)C[C@@H]32)cc1
Reply text: t

Inquiry: Here is the next molecule: CC1=CC[C@@H]2[C@@H](C1)c1c(O)cc(-c3cccc4ccccc34)cc1OC2(C)C
Reply text: t

Inquiry: Here is the next molecule: C=C(C)[C@@H]1CCC(C)=C[C@H]1c1c(O)cc(-c2cccc3ccccc23)cc1O
Reply text: f

Inquiry: Here is the next molecule: C=C(C)[C@@H]1CCC(C)=C[C@H]1c1c(O)cc(C2(C#N)CCCC2)cc1O
Reply text: f

###

test.protocol: Selectivity for rat CB1 receptor over mouse CB2 receptor
Assign labels as follows, please: True for Ratio Ki below 1; False for Ratio Ki equal to or exceeding 1.

The following compounds have reported results that may help.
CC1=CC[C@@H]2[C@@H](C1)c1c(O)cc(-c3ccc(C)cc3)cc1OC2(C)C = False
C=C(C)[C@@H]1CCC(C)=C[C@H]1c1c(O)cc(-c2ccc(C)cc2)cc1O = False
C=C(C)[C@@H]1CCC(C)=C[C@H]1c1c(O)cc(C2(C#N)CCCCC2)cc1O = False

Inquiry: Check if Ratio Ki falls below 1 for CC1=CC[C@@H]2[C@@H](C1)c1c(O)cc(-c3cccc4ccccc34)cc1OC2(C)C .
Reply text: False

Inquiry: Here is the next compound: CCCc1ccc(-c2cc(O)c3c(c2)OC(C)(C)[C@@H]2CC=C(C)C[C@@H]32)cc1
Reply text: True

Inquiry: Here is the next compound: CC1=CC[C@@H]2[C@@H](C1)c1c(O)cc(C34CC5CC(CC(C5)C3)C4)cc1OC2(C)C
Reply text: True

Inquiry: Here is the next compound: CCCCCc1cc(O)c2c(c1)OC(C)(C)[C@@H]1CC=C(C)C[C@@H]21
Reply text: False

Inquiry: Here is the next compound: CCc1ccc(-c2cc(O)c3c(c2)OC(C)(C)[C@@H]2CC=C(C)C[C@@H]32)cc1
Reply text: False

###

measurement.target: Cannabinoid receptor 1 (Rattus norvegicus)
Sequence (P20272 whole entry): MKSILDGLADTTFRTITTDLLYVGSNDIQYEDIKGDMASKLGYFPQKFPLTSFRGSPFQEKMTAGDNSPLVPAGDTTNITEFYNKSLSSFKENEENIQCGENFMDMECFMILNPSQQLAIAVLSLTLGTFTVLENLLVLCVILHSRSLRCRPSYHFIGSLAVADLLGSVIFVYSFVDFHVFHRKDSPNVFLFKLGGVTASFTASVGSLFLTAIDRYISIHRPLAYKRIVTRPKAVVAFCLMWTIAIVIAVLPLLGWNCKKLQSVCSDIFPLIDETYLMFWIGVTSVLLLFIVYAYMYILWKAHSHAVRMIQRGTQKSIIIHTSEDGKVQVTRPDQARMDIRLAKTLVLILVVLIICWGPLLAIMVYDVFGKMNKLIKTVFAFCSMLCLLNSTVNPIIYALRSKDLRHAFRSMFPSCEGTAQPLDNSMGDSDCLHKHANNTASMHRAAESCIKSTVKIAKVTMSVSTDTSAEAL
Please respond with reported pKi for every item in the list.
One number for each entry, as −log10 of the molar value.

Observe how each entry below is paired with its result.
C=C(C)[C@@H]1CCC(C)=C[C@H]1c1c(O)cc(-c2ccc(C)cc2)cc1O = 6.20
C=C(C)[C@@H]1CCC(C)=C[C@H]1c1c(O)cc(-c2cccc3ccccc23)cc1O = 6.12
CC1=CC[C@@H]2[C@@H](C1)c1c(O)cc(C3(C#N)CCCC3)cc1OC2(C)C = 7.55
CC1=CC[C@@H]2[C@@H](C1)c1c(O)cc(-c3cccc4ccccc34)cc1OC2(C)C = 7.93
C=C(C)[C@@H]1CCC(C)=C[C@H]1c1c(O)cc(C2(C#N)CCCCC2)cc1O = 6.50

Consider the following items and state reported pKi for each.
1. CC1=CC[C@@H]2[C@@H](C1)c1c(O)cc(-c3ccc(C)cc3)cc1OC2(C)C
2. CCc1ccc(-c2cc(O)c3c(c2)OC(C)(C)[C@@H]2CC=C(C)C[C@@H]32)cc1

Reply text:
1. 7.02
2. 6.92

Consider the following items and state reported pKi for each.
1. CC1=CC[C@@H]2[C@@H](C1)c1c(O)cc(C3(C#N)CCCCC3)cc1OC2(C)C
2. C=C(C)[C@@H]1CCC(C)=C[C@H]1c1c(O)cc(C2(C#N)CCCC2)cc1O
3. CCCc1ccc(-c2cc(O)c3c(c2)OC(C)(C)[C@@H]2CC=C(C)C[C@@H]32)cc1

Reply text:
1. 8.08
2. 6.59
3. 7.24
